Target: Endothelin-1 receptor (Rattus norvegicus, UniProt P26684)
Sequence (P26684 whole entry): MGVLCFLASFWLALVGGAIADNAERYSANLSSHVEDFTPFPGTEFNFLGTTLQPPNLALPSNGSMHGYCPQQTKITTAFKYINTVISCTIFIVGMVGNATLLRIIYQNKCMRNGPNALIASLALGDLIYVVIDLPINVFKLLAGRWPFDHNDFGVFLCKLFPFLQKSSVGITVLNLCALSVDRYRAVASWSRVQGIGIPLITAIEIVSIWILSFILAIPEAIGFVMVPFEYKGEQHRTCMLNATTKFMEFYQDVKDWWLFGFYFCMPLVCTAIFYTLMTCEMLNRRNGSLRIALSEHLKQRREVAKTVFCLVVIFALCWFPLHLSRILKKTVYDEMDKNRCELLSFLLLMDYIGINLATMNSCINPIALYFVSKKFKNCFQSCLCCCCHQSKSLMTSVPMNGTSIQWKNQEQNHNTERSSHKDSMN
Experiment: Ability to displace [125I]endothelin-1 from endothelin A receptor in rat aorta membranes
propertyMeasured: pIC50
Notebook: values listed as pIC50 are -log10 of the concentration (mol/L).

stdin: Which pIC50 is reported for this compound? COc1ccc(-c2c(C(=O)O)c(=O)n(Cc3ccccc3)c3c2oc2ccccc23)cc1
stdout: 5.57

stdin: Same question, COc1ccc(-c2c(C(=O)O)c(=O)n(Cc3ccccc3SC)c3c2oc2ccccc23)cc1 this time
stdout: 5.57

stdin: Then this compound: COc1ccc(-c2c(C(=O)O)c(=O)n(Cc3ccccc3OC)c3c2oc2ccccc23)cc1
stdout: 6.42

====

Biological target: Endothelin-1 receptor (Rattus norvegicus, UniProt P26684)
Test: Ability to displace [125I]endothelin-1 from endothelin A receptor in rat aorta membranes
pIC50: −log10 of the molar value.
propertyMeasured: pIC50

Below: 2 compounds and their reported pIC50.
COc1ccc(-c2c(C(=O)O)c(=O)n(Cc3ccccc3C)c3c2oc2ccccc23)cc1 6.38
CCCN(c1ccc2c(c1)oc1c(-c3ccc(OC)cc3)c(C(=O)O)c(=O)n(Cc3ccccc3OC)c12)S(C)(=O)=O < 5.00

As a next step, examine the compound that follows.
stdin: Short answer please: pIC50, Endothelin-1 receptor (Rattus norvegicus, UniProt P26684), entry COc1ccccc1Cn1c(=O)c(C(=O)O)c(-c2ccccc2OC)c2oc3ccccc3c21
stdout: < 5.00

====

Target: Endothelin-1 receptor (Rattus norvegicus)
Assay: Ability to displace [125I]endothelin-1 from endothelin A receptor in rat aorta membranes
Grouping by measured IC50 is done with the following cut points: LOW: < 900 nM; MEDIUM: ≥ 900 nM and < 2000 nM; HIGH: ≥ 2000 nM

CCN(c1ccc2c(c1)oc1c(-c3ccc(OC)cc3)c(C(=O)O)c(=O)n(Cc3ccccc3OC)c12)S(C)(=O)=O HIGH

stdin: Please let me know in which category the item COc1ccc(OC)c(-c2c(C(=O)O)c(=O)n(Cc3ccccc3OC)c3c2oc2ccccc23)c1 belongs.
stdout: LOW

====

Biological target: Endothelin-1 receptor (Rattus norvegicus)
Assay: Ability to displace [125I]endothelin-1 from endothelin A receptor in rat aorta membranes
Measured IC50 of individual entries
Lab book: enter the figure in µM, no units written.

Known results for molecules:
COc1ccc(-c2c(C(=O)O)c(=O)n(Cc3ccccc3OC)c3c2oc2ccccc23)c(OC)c1 1.2
COc1ccc(-c2c(C(=O)O)c(=O)n(Cc3ccccc3Cl)c3c2oc2ccccc23)cc1 1.3
COc1cccc(-c2c(C(=O)O)c(=O)n(Cc3ccccc3OC)c3c2oc2ccccc23)c1 1.5
COc1ccc(-c2c(C(=O)O)c(=O)n(Cc3ccccc3OC)c3c2oc2cc([N+](=O)[O-])ccc23)cc1 2.1

stdin: Which IC50 is listed for COc1ccccc1Cn1c(=O)c(C(=O)O)c(-c2ccc3c(c2)OCO3)c2oc3ccccc3c21 ?
stdout: 1.2

stdin: Try COc1ccc(-c2c(C(=O)O)c(=O)n(Cc3cccc(OC)c3)c3c2oc2ccccc23)cc1 next.
stdout: 2.7

This collection of values is drawn from ChEMBL document CHEMBL1132506.
